target: Alpha-1A adrenergic receptor (Rattus norvegicus) (UniProt P43140); assay: Inhibition of (-)-noradrenaline-induced contraction of rat prostatic vas deferens (alpha1A receptor); format: functional
Sequence (P43140 whole entry): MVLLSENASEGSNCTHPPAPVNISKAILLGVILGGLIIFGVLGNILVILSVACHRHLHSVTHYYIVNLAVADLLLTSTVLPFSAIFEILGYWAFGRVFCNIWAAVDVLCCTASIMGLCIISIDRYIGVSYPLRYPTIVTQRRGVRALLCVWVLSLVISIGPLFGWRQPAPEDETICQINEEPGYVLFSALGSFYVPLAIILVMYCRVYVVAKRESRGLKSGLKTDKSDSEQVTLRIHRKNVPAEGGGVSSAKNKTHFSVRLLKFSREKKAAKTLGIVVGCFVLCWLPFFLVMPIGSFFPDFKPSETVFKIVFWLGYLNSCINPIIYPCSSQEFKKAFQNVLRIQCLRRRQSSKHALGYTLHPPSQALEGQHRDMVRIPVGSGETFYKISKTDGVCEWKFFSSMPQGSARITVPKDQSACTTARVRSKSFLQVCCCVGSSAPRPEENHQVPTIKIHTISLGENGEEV
Below, each entry is listed with its recorded pKb.
Answer with the value's number alone.

Some solved cases for reference:
[[record]]
compound = "COc1cccc(OC)c1OCCNCC1CO[C@@H](c2cccc3ccccc23)O1.O=C(O)C(=O)O (stereo partly drawn)"
recorded_endpoint = "pKb"
endpoint_value = 5.69

[[record]]
compound = "COc1cccc(OC)c1OCCNCC1COC(c2ccccc2)(c2ccccc2)O1.O=C(O)C(=O)O (stereo not drawn)"
recorded_endpoint = "pKb"
endpoint_value = 5.73

[[record]]
compound = "COc1cccc(OC)c1OCCNCC1CO[C@@H](Cc2ccccc2)O1.O=C(O)C(=O)O (stereo partly drawn)"
recorded_endpoint = "pKb"
endpoint_value = 6.82

[[record]]
compound = "O=C(O)C(=O)O.c1ccc(OCCNCC2CO[C@H](c3ccccc3)O2)cc1 (stereo partly drawn)"
recorded_endpoint = "pKb"
endpoint_value = 5.44

[[record]]
compound = "O=C(O)C(=O)O.c1ccc(OCCNCC2COC3(CCCCC3)O2)cc1 (stereo not drawn)"
recorded_endpoint = "pKb"
endpoint_value = 5.27


Ask: Consider the compound shown here: O=C(O)C(=O)O.c1ccc(OCCNCC2CO[C@@H](c3ccccc3)O2)cc1 (stereo partly drawn) What is its recorded pKb?
Result: 6.01

Ask: Thanks! And COc1cccc(OC)c1OCCNCC1CO[C@H](Cc2ccccc2)O1.O=C(O)C(=O)O (stereo partly drawn) ?
Result: 5.36
